testedSystem: T1, PDZD7_1, Q9H5P4
T1 sequence (Q9H5P4 81-178, limits assumed, looked up): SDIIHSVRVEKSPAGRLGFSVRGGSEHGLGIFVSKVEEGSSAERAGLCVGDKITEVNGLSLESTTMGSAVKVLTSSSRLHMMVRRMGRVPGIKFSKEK
assayOverview: holdup assay
Set-up: key: below the threshold = too weak to quantify, mostly under pKd 3.1 to 4
testContext: plain residues with an end cap or a label only (N-terminal biotin on a linker: ttds)

>  <binder>
STLTIFETAL [ABCC4, O15439]

>  <pKd>
4.25

$$$$
>  <binder>
RSLEEEESQL [GRASP, Q7Z6J2]

>  <pKd>
below the threshold

$$$$
>  <binder>
QSARYRDTEL [TJP2, Q9UDY2]

>  <pKd>
below the threshold

$$$$
